Molecular target: human PDE9A2 (Homo sapiens, UniProt O76083)
Construct: made in house; host or cells: Sf9 insect cells (infected); crude lysate used as enzyme source
Sequence (O76083 1-533 isoform O76083-2): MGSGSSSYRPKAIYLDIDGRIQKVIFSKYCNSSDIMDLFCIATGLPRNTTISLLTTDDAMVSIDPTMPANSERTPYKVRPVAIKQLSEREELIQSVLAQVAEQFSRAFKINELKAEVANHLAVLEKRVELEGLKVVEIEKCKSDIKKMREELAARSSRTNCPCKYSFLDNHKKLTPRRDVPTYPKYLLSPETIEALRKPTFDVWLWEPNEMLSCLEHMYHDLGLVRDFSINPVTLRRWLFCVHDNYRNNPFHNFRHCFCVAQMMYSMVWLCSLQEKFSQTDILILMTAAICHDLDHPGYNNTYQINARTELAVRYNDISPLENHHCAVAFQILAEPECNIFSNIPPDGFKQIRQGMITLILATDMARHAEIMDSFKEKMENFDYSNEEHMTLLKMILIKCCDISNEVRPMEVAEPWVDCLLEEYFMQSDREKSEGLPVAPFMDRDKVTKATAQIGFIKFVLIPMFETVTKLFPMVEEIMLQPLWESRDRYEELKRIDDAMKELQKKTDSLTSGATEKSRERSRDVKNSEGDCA
Experiment: PDE9A2 enzymatic activity assay (scintillation proximity assay, SPA)
Format: biochemical
Settings: read-out: % inhibition of PDE9A2 (at 10 micromolar concentration), 10 micromolar concentration; values above 100% adjusted to 100%
property-name: inhibition at 10 µM (%)

[
  {
    "molecule": "O=C(c1ccccc1)N1CCCC(n2ncc3c(=O)[nH]c(Cc4ccccc4OC(F)(F)F)nc32)C1 (racemic)",
    "value-measured": 97
  },
  {
    "molecule": "CC1CC(n2ncc3c(=O)[nH]c(CC4CCC4)nc32)CCO1 (racemic)",
    "value-measured": 95
  },
  {
    "molecule": "CC(C)Cc1nc2c(cnn2C2CCOCC2)c(=O)[nH]1",
    "value-measured": 100
  },
  {
    "molecule": "O=c1[nH]c(Cc2cccc(C(F)(F)F)c2)nc2c1cnn2C1CCCOC1 (racemic)",
    "value-measured": 99
  }
]
